Collected IC50 values appear next to each entry.
Biological target: SHP2 (PTPN11/SHP2-FL) (Homo sapiens)
Construct: SHP2 (PTPN11/SHP2-FL, RBC produced, no cat #)
Sequence (Q06124 1-593): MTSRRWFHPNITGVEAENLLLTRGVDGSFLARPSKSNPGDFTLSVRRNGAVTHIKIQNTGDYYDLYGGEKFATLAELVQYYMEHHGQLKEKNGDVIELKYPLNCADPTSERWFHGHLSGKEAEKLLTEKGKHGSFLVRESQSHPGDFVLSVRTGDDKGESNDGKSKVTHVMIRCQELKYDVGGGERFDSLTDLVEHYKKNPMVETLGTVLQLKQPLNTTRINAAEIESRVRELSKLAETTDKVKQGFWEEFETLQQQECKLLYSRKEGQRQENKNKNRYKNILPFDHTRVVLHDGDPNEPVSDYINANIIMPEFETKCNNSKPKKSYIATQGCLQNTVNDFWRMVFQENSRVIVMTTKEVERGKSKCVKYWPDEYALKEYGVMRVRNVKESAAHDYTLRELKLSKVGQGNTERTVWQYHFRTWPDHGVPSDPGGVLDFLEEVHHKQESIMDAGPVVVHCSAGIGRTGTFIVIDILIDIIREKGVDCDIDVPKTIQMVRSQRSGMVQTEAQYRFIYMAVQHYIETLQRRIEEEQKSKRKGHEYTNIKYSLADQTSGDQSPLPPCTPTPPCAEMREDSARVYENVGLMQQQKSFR
Experiment: SHP2 biochemical assay (DiFMUP prompt fluorescence)
Conditions: 0.5 nM SHP2, 0.35 μM activating peptide, DiFMUP 100 μM; read-out: SHP2 bichemical activity (IC50)

// known answers, use as guide
Chemical String	Assay System	IC50
CC1(CN)CCN(c2cnc(Sc3cccc(C(=O)NS(=O)(=O)C4CC4)c3Cl)cn2)CC1	SHP2 (PTPN11/SHP2-FL) (Homo sapiens)	≤ 10 nM
CC1(CN)CCN(c2cnc(Sc3cccc(C(=O)NS(=O)(=O)c4ccncc4)c3Cl)cn2)CC1	SHP2 (PTPN11/SHP2-FL) (Homo sapiens)	≤ 10 nM
CC1(CN)CCN(c2cnc(Sc3cccc(C(=O)NS(=O)(=O)c4cccnc4)c3Cl)cn2)CC1	SHP2 (PTPN11/SHP2-FL) (Homo sapiens)	≤ 10 nM
CC1(N)CCN(c2cnc(Sc3cccc(C(=O)NS(=O)(=O)C4CC4)c3Cl)cn2)CC1	SHP2 (PTPN11/SHP2-FL) (Homo sapiens)	10 to 100 nM
CC1(CN)CCN(c2cnc(Sc3cccc(C(=O)NS(=O)(=O)c4cccnc4)c3Cl)c(N)n2)CC1	SHP2 (PTPN11/SHP2-FL) (Homo sapiens)	≤ 10 nM
CC1(N)CCN(c2cnc(Sc3cccc(S(=O)(=O)NC(=O)c4ccccc4)c3Cl)c(N)n2)CC1	SHP2 (PTPN11/SHP2-FL) (Homo sapiens)	10 to 100 nM

Give the measured IC50 for "CC1(CN)CCN(c2cnc(Sc3cccc(C(=O)NS(=O)(=O)C4CCCCC4)c3Cl)cn2)CC1" ≤ 10 nM

Let me know recorded IC50 for "CC1(CN)CCN(c2cnc(Sc3cccc(C(=O)NS(=O)(=O)c4ccccc4)c3Cl)c(N)n2)CC1" , thanks. ≤ 10 nM
